Quick reference for koff among some binders
Biological target: T1, human Calcitonin Gene-Related Peptide (CGRP) (human, not fully specified)
T1 construct: also called hCGRP; Human CGRP
T1 peptide: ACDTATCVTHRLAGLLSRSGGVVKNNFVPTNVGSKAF
Assay: SPR Biacore 8k; antibody amine-coupled to chip, CGRP as analyte
MEASUREMENT KIND: koff

binder="REMD 128.3 (antibody, human IgG4 S228P, kappa, V domains shown, Humanized full-length IgG (IgG4 constant region, kappa); also called IgG 14 (H4/L2); 14 (H4/L2)) VH: QVQLVQSGAEVVKPGASVKISCKASGYTFTDYYMNWVKQAPGQGLEWIGDVNPNNGGTHYNQKFKGRATLTVDTSISTAYMELSRLRSDDTAVYYCASITIVPVYFDFWGQGTLLTVSS VL: DIQLTQSPSFLSASVGDRVTITCKASQNVGPNVAWYRQKPGKAPKALIYSASYRYSGVPSRFSGSGSGTEFTLTISSLQPEDFATYICQQYNYYPYTFGQGTKLEIKR" result="7.01e-06 s⁻¹"
binder="REMD 128.1 (antibody, human IgG4 S228P, kappa, V domains shown, Humanized full-length IgG (IgG4 constant region, kappa); also called IgG 11 (H3/L3); 11 (H3/L3)) VH: QVQLVQSGAEVVKPGASVKVSCKASGYTFTDYYMNWVKQAPGQGLEWIGDVNPNNGGTHYNQKFKGRVTLTVDTSISTAYMELSRLRSDDTAVYYCASITIVPVYFDFWGQGTLVTVSS VL: DIQLTQSPSFLSTSVGDRVTITCKASQNVGPNVAWYRQKPGKSPKALIYSASYRYSGVPSRFSGSGSGTEFTLTISSLQPEDFATYICQQYNYYPYTFGQGTKLEIKR" result="7.61e-06 s⁻¹"
binder="murine-human chimeric IgG4 derived from murine antibody A3 (antibody, V domains shown, also called chimeric antibody) VH: EVQLQQSGPELVKPGASVKISCKASGYTFTDYYMNWVKQSHGKSLEWIGDVNPNNGGTHYNQKFKGKATLTVDKSSSTAYMELRSLTSEDSAVYYCASITIVPVYFDFWGQGTTLTVSS VL: DIVMTQSQKFMSTSVGDRVSVTCKASQNVGPNVAWYRQKPGQSPKALIYSASYRYSGVPDRFTGSGSGTDFTLTISNVQSEDLADYICQQYNYYPYTFGGGTKLEIKR" result="1.19e-05 s⁻¹"
